src = patent US9309242B2

Here the recorded BAF3-FGFR3 (MIN IL3) pIC50 is given for each entry.
Target: Ba/F3-FGFR3-transfected cells (Homo sapiens)
Construct: BAF3-FGFR3 (MIN IL3) pIC50; other: minus IL3
Sequence (P22607 whole entry, change not shown): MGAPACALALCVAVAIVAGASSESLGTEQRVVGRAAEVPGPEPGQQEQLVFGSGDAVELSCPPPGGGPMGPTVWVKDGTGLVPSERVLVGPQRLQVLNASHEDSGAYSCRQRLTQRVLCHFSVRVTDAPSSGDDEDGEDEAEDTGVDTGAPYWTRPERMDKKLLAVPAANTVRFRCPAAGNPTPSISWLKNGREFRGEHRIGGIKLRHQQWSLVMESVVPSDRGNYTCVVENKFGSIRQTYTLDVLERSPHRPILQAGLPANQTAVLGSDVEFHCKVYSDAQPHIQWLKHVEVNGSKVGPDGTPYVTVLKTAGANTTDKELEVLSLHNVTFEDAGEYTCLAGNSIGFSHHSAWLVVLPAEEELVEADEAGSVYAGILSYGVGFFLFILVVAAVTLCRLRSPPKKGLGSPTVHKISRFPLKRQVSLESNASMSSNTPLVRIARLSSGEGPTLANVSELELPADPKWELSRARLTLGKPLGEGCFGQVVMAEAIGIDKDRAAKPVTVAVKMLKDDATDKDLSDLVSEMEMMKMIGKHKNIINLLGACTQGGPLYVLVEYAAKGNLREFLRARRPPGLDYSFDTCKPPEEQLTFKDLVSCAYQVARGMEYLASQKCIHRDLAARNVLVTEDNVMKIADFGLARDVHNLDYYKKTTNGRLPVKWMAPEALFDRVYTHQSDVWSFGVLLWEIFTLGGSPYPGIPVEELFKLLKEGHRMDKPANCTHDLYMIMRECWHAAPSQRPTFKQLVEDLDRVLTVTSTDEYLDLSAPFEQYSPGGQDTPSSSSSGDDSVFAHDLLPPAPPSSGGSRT
Test: Ba/F3-FGFR3 (minus IL3) cellular proliferation assay, Alamar Blue
Type: cell-based

Molecule: COc1cc(O)c(F)c(N(Cc2ncc[nH]2)c2ccc3ncc(-c4cnn(C)c4)nc3n2)c1
BAF3-FGFR3 (MIN IL3) pIC50: ~8.09

Molecule: COc1cc(/N=c2\ccc3ncc(-c4cnn(C)c4)nc3n2CC2COC(=O)N2)c(F)c(OC)c1 (single isomer, unassigned) [Compound 112]
BAF3-FGFR3 (MIN IL3) pIC50: ~7.27

Molecule: COc1cc(OC)c(F)c(N(Cc2ncc[nH]2)c2ccc3ncc(-c4cn[nH]c4)nc3n2)c1
BAF3-FGFR3 (MIN IL3) pIC50: ~8.15

* * *

Molecular target: FGFR2 (h) (Homo sapiens, UniProt P21802)
Sequence (P21802 22-821): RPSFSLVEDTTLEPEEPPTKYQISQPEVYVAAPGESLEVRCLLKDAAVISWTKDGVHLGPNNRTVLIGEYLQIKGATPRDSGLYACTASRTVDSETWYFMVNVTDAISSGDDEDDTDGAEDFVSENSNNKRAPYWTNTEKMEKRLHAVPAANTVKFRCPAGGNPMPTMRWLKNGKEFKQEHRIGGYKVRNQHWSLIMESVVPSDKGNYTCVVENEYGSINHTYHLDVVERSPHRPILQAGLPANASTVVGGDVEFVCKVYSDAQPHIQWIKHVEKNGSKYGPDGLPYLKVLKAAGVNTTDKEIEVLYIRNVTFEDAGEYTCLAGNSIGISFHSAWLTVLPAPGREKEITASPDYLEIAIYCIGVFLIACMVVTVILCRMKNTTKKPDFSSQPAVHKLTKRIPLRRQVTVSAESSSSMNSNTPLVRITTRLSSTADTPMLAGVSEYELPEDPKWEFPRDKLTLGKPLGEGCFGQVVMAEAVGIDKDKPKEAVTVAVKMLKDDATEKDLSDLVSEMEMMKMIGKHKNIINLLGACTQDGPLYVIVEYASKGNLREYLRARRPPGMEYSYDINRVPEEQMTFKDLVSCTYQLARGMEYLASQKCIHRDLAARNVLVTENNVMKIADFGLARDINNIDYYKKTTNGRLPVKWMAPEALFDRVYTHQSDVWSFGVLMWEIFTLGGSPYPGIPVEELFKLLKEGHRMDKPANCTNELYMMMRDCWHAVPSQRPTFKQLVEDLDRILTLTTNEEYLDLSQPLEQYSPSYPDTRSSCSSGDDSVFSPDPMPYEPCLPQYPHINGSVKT
Experiment: FGFR2 (enzymatic assay), TR-FRET
Assay type: biochemical
Details: enzymatic assay; average values if tested multiple times; read-out: FGFR 2 pIC50 (converted)
Structures can show the parent of a compound that is named as a salt.
Catalogue of log10 IC50 values
Reported metric: log10 IC50 (log10 of the value in nM)

Molecule: COc1cc(OC)cc(N(CC2CCC(=O)N2)c2ccc3ncc(-c4cnn(C)c4)nc3n2)c1 (centres unmarked) [Compound 49]
log10 IC50: 0.29

Molecule: COc1cc(OC)c(F)c(N(Cc2nc[nH]n2)c2ccc3ncc(-c4cnn(C)c4)nc3n2)c1F [Compound 85]
log10 IC50: 0.31

Molecule: COc1cc(OC)c(F)c(N(Cc2ncc[nH]2)c2ccc3ncc(-c4cnn(C)c4)nc3n2)c1 [23-phosphate salt]
log10 IC50: 0.28

Molecule: COc1cc(OC)c(Cl)c(N(CC2CCC(=O)N2)c2ccc3ncc(-c4cnn(C)c4)nc3n2)c1Cl (single isomer, unassigned) [Compound 88]
log10 IC50: 0.96

Molecule: COc1cc(OC)c(F)c(N(CCO)c2ccc3ncc(-c4cnn(C)c4)nc3n2)c1F [Compound 20]
log10 IC50: 2.10

Molecule: COc1cc(OC)c(F)c(N(CCO)c2ccc3ncc(-c4cnn(C)c4)nc3n2)c1 [Compound 40]
log10 IC50: 0.17

Molecule: COc1cc(OC)c(F)c(N(CC(O)COC(C)C)c2ccc3ncc(-c4cnn(C)c4)nc3n2)c1 (single isomer, unassigned) [Compound 75]
log10 IC50: 0.42

Molecule: CNCCN(c1ccc2ncc(-c3cnn(C)c3)nc2n1)c1cc(OC)cc(OC)c1F [Compound 39]
log10 IC50: 0.73

Molecule: Cn1cc(-c2cnc3ccc(N(Cc4ncc[nH]4)c4cc(F)cc(F)c4)nc3n2)cn1 [Compound 27]
log10 IC50: 0.82

Molecule: COc1cc(OC)cc(N(Cc2nc[nH]n2)c2ccc3ncc(-c4cnn(C)c4)nc3n2)c1 [Compound 71]
log10 IC50: 0.19

Molecule: COc1cc(OC)c(F)c(N(Cc2cn(S(=O)(=O)N(C)C)cn2)c2ccc3ncc(-c4cnn(C)c4)nc3n2)c1 [Compound 36]
log10 IC50: 0.60

Molecule: COc1cc(OC)c(F)c(N(Cc2ncc[nH]2)c2ccc3ncc(-c4cnn(C)c4)nc3n2)c1 [23-Sulfate salt]
log10 IC50: 0.32

Molecule: COc1cc(OC)c(F)c(/N=c2\ccc3ncc(-c4cnn(C)c4)nc3n2CC(O)COC(C)C)c1F (centres unmarked) [Compound 64]
log10 IC50: 0.21

Molecule: COc1cc(OC)c(F)c(N(Cc2ncc[nH]2)c2ccc3ncc(-c4cnn(Cc5ncc[nH]5)c4)nc3n2)c1 [Compound 100]
log10 IC50: 0.33

Molecule: COc1cc(OC)c(F)c(N(CC(O)COC(C)C)c2ccc3ncc(-c4cnn(C)c4)nc3n2)c1F (centres unmarked) [Compound 61]
log10 IC50: 0.62

Molecule: COc1cc(OC)cc(N(CC(O)C(F)(F)F)c2ccc3ncc(-c4cnn(C)c4)nc3n2)c1 (single isomer, unassigned) [Compound 34]
log10 IC50: 0.66

Molecule: COc1cc(/N=c2\ccc3ncc(-c4cnn(C)c4)nc3n2Cc2ccnn2C)c(F)c(OC)c1 [Compound 114]
log10 IC50: 0.21

Molecule: COc1cc(O)cc(N(Cc2ncc[nH]2)c2ccc3ncc(-c4cnn(C)c4)nc3n2)c1 [Compound 103]
log10 IC50: -0.13

Molecule: COc1cc(OC)cc(N(CC#Cc2ncccc2OC)c2ccc3ncc(-c4cnn(C)c4)nc3n2)c1 [Compound 26]
log10 IC50: 1.80

Molecule: COc1cc(OC)c(Cl)c(/N=c2\ccc3ncc(-c4cnn(C)c4)nc3n2CC2CCC(=O)N2)c1Cl (single isomer, unassigned) [Compound 87]
log10 IC50: 0.78

* * *

Quick list: IC50 per entry.
Target: UniProt:P21802
Assay: FGFR2 (enzymatic assay), TR-FRET
Type: biochemical
Details: enzymatic assay; average values if tested multiple times; read-out: FGFR 2 pIC50 (converted)

Smiles input: COc1cc(OC)c(F)c(N(CCNC(C)C)c2ccc3ncc(-c4cnn(C)c4)nc3n2)c1
IC50 [nM]: 5.01
//
Smiles input: COc1cc(OC)c(F)c(/N=c2\ccc3ncc(-c4cnn(C)c4)nc3n2CCNC(C)C)c1F
IC50 [nM]: 5.01

* * *

Target: Ba/F3-FGFR3-transfected cells (Homo sapiens)
Construct: BAF3-FGFR3 (MIN IL3) pIC50; other: minus IL3
Assay: Ba/F3-FGFR3 (minus IL3) cellular proliferation assay, Alamar Blue
Format: cell-based
Listing of recorded BAF3-FGFR3 (MIN IL3) pIC50 by entry.
Reported metric: BAF3-FGFR3 (MIN IL3) pIC50

Compound: COc1cc(OC)c(F)c(N(CCN(C2COC2)C2COC2)c2ccc3ncc(-c4cnn(C)c4)nc3n2)c1 [Compound 222]
Reported metric: BAF3-FGFR3 (MIN IL3) pIC50
Observed value: ~7.19
--
Compound: COc1cc(OC)cc(N(CC(O)C(F)(F)F)c2ccc3ncc(-c4cnn(C)c4)nc3n2)c1 (single isomer, unassigned) [Compound 33]
Reported metric: BAF3-FGFR3 (MIN IL3) pIC50
Observed value: ~7.64
--
Compound: COc1cc(OC)cc(N(CCCN2CCCC2=O)c2ccc3ncc(-c4cnn(C)c4)nc3n2)c1 [Compound 134]
Reported metric: BAF3-FGFR3 (MIN IL3) pIC50
Observed value: ~6.64
--
Compound: COc1cc(OC)cc(N(Cc2ncc[nH]2)c2ccc3ncc(-c4ccncc4)nc3n2)c1 [Compound 202]
Reported metric: BAF3-FGFR3 (MIN IL3) pIC50
Observed value: ~7.67
--
Compound: COc1cc(OC)c(F)c(N(CC2COC(=O)N2)c2ccc3ncc(-c4cnn(C)c4)nc3n2)c1 (stereo not drawn) [Compound 124]
Reported metric: BAF3-FGFR3 (MIN IL3) pIC50
Observed value: ~7.16
--
Compound: COc1cc(OC)cc(N(Cc2ncc[nH]2)c2ccc3ncc(-c4ccn(C)c4)nc3n2)c1 [Compound 198]
Reported metric: BAF3-FGFR3 (MIN IL3) pIC50
Observed value: ~8.15

* * *

IC50 for assorted molecules
Biological target: KDR (h) (Homo sapiens)
Sequence (P35968 20-1356): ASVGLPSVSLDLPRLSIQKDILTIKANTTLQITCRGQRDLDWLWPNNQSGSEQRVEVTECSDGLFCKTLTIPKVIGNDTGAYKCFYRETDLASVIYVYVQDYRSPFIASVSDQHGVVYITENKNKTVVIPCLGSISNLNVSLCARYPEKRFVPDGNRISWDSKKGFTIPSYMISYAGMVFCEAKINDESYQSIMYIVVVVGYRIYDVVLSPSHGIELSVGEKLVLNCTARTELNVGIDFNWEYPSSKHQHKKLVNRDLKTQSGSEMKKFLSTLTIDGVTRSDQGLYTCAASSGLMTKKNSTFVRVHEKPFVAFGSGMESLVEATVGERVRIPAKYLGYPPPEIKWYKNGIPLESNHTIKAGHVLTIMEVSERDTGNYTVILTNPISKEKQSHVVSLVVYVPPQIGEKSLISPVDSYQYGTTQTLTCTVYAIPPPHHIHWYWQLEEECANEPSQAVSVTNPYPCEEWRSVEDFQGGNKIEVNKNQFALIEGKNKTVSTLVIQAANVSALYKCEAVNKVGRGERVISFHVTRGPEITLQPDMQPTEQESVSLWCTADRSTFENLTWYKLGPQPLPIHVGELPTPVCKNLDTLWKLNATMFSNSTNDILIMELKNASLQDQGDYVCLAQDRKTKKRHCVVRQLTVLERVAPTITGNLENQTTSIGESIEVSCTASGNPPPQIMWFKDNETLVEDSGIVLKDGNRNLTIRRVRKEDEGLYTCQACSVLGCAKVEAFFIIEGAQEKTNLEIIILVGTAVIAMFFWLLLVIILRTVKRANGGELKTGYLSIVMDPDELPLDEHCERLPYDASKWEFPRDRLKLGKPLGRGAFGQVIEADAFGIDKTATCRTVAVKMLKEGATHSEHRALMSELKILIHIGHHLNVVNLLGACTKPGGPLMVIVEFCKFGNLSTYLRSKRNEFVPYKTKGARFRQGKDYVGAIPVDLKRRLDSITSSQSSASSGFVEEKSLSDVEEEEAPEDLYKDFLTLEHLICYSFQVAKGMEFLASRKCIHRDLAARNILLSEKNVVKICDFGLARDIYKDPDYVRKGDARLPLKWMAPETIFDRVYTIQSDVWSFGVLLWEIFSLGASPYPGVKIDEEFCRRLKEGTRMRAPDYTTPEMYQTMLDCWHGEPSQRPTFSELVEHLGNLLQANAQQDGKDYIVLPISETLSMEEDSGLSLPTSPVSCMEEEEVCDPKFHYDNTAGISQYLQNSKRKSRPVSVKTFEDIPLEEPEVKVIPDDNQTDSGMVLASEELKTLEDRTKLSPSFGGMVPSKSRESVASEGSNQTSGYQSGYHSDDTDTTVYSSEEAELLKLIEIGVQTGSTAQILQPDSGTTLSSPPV
Assay: KDR (VEGFR2) (enzymatic assay), TR-FRET
Type: biochemical
Conditions: average values if tested multiple times, read-out: VEGFR 2 (KDR) pIC50 (converted)
Procedure: KDR (VEGFR2) (Enzymatic Assay) In a final reaction volume of 30 μL, KDR (h) (150 ng/ml) was incubated with 50 mM HEPES pH 7.5, 6 mM MnCl2, 1 mM DTT, 0.1 mM Na3VO4, 0.01% Triton-X-100, 500 nM Btn-Flt3 and 3 μM ATP in the presence of compound (1% DMSO final). […] Time-Resolved Fluorescence Resonance Energy Transfer (TR-FRET) signal (ex340 nm. Em 620 nm, em 655 nm) was measured afterwards and results are expressed in RFU (Relative Fluorescence Units).
Structures can show the parent of a compound that is named as a salt.
Reported metric: IC50

Molecule: COc1cc(OC)c(F)c(N(Cc2ncc[nH]2)c2ccc3ncc(-c4cnn(C)c4)nc3n2)c1 [Compound 23]
Observed value: 7.08 nM
//
Molecule: COc1cc(OC)c(F)c(N(Cc2ncc[nH]2)c2ccc3ncc(-c4cnn(C)c4)nc3n2)c1 [23-fumarate salt]
Observed value: 5.13 nM
//
Molecule: CNCCN(c1ccc2ncc(-c3cnn(C)c3)nc2n1)c1c(F)ccc(OC)c1Cl
Observed value: 417 nM
//
Molecule: CNCCN(c1ccc2ncc(-c3cnn(C)c3)nc2n1)c1c(F)c(OC)cc(OC)c1F
Observed value: 21.9 nM
//
Molecule: COc1cc(OC)c(Cl)c(N(CC2CCC(=O)N2)c2ccc3ncc(-c4cnn(C)c4)nc3n2)c1Cl (single isomer, unassigned)
Observed value: 102 nM
//
Molecule: COc1cc(O)cc(N(Cc2ncc[nH]2)c2ccc3ncc(-c4cnn(C)c4)nc3n2)c1F
Observed value: 2.75 nM
//
Molecule: COc1cc(OC)c(F)c(N(Cc2nc3c([nH]2)CCNC3)c2ccc3ncc(-c4cnn(C)c4)nc3n2)c1
Observed value: 26.3 nM
//
Molecule: COc1cc(OC)c(F)c(/N=c2\ccc3ncc(-c4cnn(C)c4)nc3n2CCCO)c1F (single isomer, unassigned)
Observed value: 3.98 nM
//
Molecule: COCC(O)CN(c1ccc2ncc(-c3cnn(C)c3)nc2n1)c1cc(OC)cc(OC)c1F (single isomer, unassigned) [Compound 59]
Observed value: 25.1 nM
//
Molecule: COc1cc(OC)cc(N(CC#Cc2ncccc2OC)c2ccc3ncc(-c4cnn(C)c4)nc3n2)c1
Observed value: 501 nM
//
Molecule: COc1cc(OC)c(F)c(/N=c2\ccc3ncc(-c4cnn(C)c4)nc3n2CC2CCC(=O)N2)c1F (stereo not drawn) [Compound 47]
Observed value: 12.6 nM
//
Molecule: COc1cc(OC)c(F)c(N(CC2CCC(=O)N2)c2ccc3ncc(-c4cnn(C)c4)nc3n2)c1F (stereo not drawn) [Compound 192]
Observed value: 13.8 nM
